Ref: the supplement of paper PMC6089552

test system: A673/TR/shEF; test: cell viability (LOESS-normalised, relative to median of negative controls) (log2 ratio); higher = more viable cells (less compound effect), active = hit call of the paper (over 3 MAD below the median); conditions: 0.25 µM; library screen: screen1; EWS-FLI1 expression: low (doxycycline-induced shRNA knockdown); treatment time: 72 h
Hit rate of the full screen: of about 3,200 compounds, about 300 (9.4%) showed activity. For the sample, actives were picked, then their nearest neighbours and some compounds at random.
Reported cell viability (log2) values are given for each entry in this list.
Provide a numeric answer; units are not to be included.

The following molecules have reported results that may help.
- compound.string: "CC(=O)Oc1c(Cl)c(C)c2c(c1Cl)OC(=O)c1c(C)c(Cl)c(OC(C)=O)c(Cl)c1O2"
  cell viability (log2): 0.0649
- compound.string: "COc1ccc2c(c1)OC[C@@H](Cc1ccc(OC)c(OC)c1)C2=O"
  cell viability (log2): 0.0264
- compound.string: "CN1/C(=C(\\O)Nc2ccccn2)C(=O)c2ccccc2S1(=O)=O"
  cell viability (log2): 0.0628

# next molecule below
Report cell viability (log2) for `CCCCCCCCCCCCC/C=C/[C@@H](O)[C@@H](N)CO` please. 0.0415
